Value source: patent US9199999B2

- TARGET DESC: human kinase Mps-1 (Homo sapiens (Human), UniProt P33981)
- Sequence (P33981 whole entry): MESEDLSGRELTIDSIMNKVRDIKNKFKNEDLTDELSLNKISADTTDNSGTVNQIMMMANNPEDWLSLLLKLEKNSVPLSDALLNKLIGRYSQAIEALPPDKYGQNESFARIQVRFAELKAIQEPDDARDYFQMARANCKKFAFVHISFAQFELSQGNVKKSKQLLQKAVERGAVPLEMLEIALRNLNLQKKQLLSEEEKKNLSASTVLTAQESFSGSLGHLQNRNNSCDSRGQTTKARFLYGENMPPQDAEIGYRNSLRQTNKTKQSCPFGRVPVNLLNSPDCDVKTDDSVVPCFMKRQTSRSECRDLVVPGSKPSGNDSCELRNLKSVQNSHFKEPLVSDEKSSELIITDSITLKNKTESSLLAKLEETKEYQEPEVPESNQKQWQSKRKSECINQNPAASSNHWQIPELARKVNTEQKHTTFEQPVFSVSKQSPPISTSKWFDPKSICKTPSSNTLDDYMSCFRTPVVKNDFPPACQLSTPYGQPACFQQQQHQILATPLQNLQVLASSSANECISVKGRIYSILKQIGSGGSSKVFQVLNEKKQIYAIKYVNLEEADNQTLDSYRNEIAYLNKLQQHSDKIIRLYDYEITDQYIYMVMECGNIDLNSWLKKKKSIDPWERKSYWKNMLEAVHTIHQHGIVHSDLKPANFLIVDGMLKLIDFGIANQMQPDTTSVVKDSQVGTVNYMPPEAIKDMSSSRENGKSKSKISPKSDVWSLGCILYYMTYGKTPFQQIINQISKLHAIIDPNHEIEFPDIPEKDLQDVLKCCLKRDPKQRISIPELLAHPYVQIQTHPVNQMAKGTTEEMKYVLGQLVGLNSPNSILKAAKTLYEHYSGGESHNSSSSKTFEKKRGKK
- RECORDED CONDITIONS: read-out: Mps-1 IC50; N-terminally GST-tagged human full length recombinant Mps-1; 10 μM ATP; 1 μM biotinylated peptide substrate; 60 min at 22° C.
READOUT LABEL: IC50 (nM)

Cc1cc(-c2cnc3c(NCCC(F)(F)F)nc(C#CCO)cn23)ccc1C(=O)NCC(F)F: 130
CCNC(=O)c1ccc(-c2cnc3c(NCCC(F)(F)F)nc(C#CCO)cn23)cc1C: 150
Cc1cc(-c2cnc3c(NCCC(F)(F)F)nc(C#CCN4CCS(=O)(=O)CC4)cn23)ccc1C(=O)NC1CC1: 4.2
O=C(NC1CC1)c1ccc(-c2cnc3c(NCCCO)nc(C#CCO)cn23)cc1: 31
C#Cc1cn2c(-c3ccc(C(=O)NC4(OC)CC4)c(C)c3)cnc2c(NCCC(F)(F)F)n1: 305
COc1cc(C(=O)NC2CC2)ccc1-c1cnc2c(NCCCN)nc(C#CCO)cn12: 993

A. OCC#Cc1cn2c(-c3ccc(-c4cnc(C5CC5)[nH]4)cc3)cnc2c(NCCCO)n1
B. C=C(C)CNc1nc(C#CCO)cn2c(-c3ccc(-c4cnc(C5CC5)[nH]4)cc3)cnc12
C. COC1(NC(=O)c2ccc(-c3cnc4c(NCCC(F)(F)F)nc(C#CCO)cn34)cc2C)CC1
D. CC(C)(O)C#Cc1cn2c(-c3ccc(C(=O)NC4CC4)cc3)cnc2c(NCCCCO)n1
Returns the items ordered by IC50, from maximum to minimum. Output the labels ranked as instructed.
C, A, D, B

P. OCC#Cc1cn2c(-c3ccc(-c4cnc(C5CC5)[nH]4)cc3)cnc2c(NCCCC(F)(F)F)n1
Q. CC(C)CNc1nc(C#Cc2ccccc2)cn2c(-c3ccc(S(=O)(=O)NC4CC4)cc3)cnc12
Field: lower recorded IC50 (choose P or Q ) Reply briefly: the label of your chosen item.
P

###

- TARGET DESC: UniProt P33981
- RECORDED CONDITIONS: read-out: Mps-1 IC50; N-terminally GST-tagged human full length recombinant Mps-1; 10 μM ATP; 1 μM biotinylated peptide substrate; 60 min at 22° C.
READOUT LABEL: IC50 (nM)

Use the examples below as a reference point.
O=S1(=O)CCN(CC#Cc2cn3c(-c4ccc(-c5cnc(C6CC6)[nH]5)cc4)cnc3c(NCCC(F)(F)F)n2)CC1: 6.8
CC(C)CNc1nc(C#Cc2ccccc2F)cn2c(-c3ccc(S(=O)(=O)NC4CC4)cc3)cnc12: 20000
C=CCNc1nc(C#CCO)cn2c(-c3ccc(-c4cnc(C5CC5)[nH]4)cc3)cnc12: 18
C#Cc1cn2c(-c3ccc(C(=O)NC4(C)CC4)c(C)c3)cnc2c(NCCC(F)(F)F)n1: 155
C#Cc1cn2c(-c3ccc(C(=O)NC4(C#N)CC4)c(C)c3)cnc2c(NCCC(F)(F)F)n1: 165

a. CNC(=O)c1ccc(-c2cnc3c(NCCC(F)(F)F)nc(C#CCO)cn23)cc1C
b. C#Cc1cn2c(-c3ccc(C(=O)NCC)c(C)c3)cnc2c(NCCC(F)(F)F)n1
c. O=C(NC1CC1)c1ccc(-c2cnc3c(NCCCCO)nc(C#CC4(O)CCCC4)cn23)cc1
Returns the items ordered by IC50, from maximum to minimum. Output the labels ranked as instructed.
b, a, c
